system-tested: human Glucagon receptor (GCGR) (human, UniProt P47871 26-477)
Sequence (P47871 26-477): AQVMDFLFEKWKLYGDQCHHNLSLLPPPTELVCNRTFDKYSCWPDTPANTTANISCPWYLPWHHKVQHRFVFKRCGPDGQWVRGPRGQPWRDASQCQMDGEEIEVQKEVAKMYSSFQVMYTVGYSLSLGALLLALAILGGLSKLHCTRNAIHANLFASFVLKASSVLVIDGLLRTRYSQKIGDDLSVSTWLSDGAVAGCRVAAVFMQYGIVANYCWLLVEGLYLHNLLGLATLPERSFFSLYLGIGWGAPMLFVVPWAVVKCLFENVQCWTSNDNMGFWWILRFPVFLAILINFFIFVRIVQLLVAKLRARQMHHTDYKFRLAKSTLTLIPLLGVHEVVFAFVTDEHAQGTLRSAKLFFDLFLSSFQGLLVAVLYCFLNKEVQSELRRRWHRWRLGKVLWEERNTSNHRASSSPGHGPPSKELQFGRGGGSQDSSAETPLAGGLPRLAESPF
assay-explanation: cell-based or functional assay
Numbered stars: 1 amine (or outer) side, 2 acyl side, 3 side chain; on linkers, the order of the positions; unused ones are H or OH. Square brackets hold non-standard residues; d marks the D form. Side chains are listed from the residue outwards. Ends that are not written are not given here. * marks the point of attachment. Phe(4-CH2NH2) = NCc1ccc(C[C@H](N)C(=O)O)cc1; C18 diacid = O=C(O)CCCCCCCCCCCCCCCCC(=O)*; γGlu = O=C(O)[C@H](CCC(=O)[*:2])N[*:1]; Met(O2) = CS(=O)(=O)CC[C@H](N)C(=O)O; αMeF = C[C@](N)(Cc1ccccc1)C(=O)O; AEEA = NCCOCCOCC(=O)O; Aib = CC(C)(N)C(=O)O
Threshold rule: GCGR EC50 human greater than or equal to 2 nM is Criterion met; below that, Criterion not met.

Completed entries (count: 3):
binder	assigned-label
H[Aib]QGTFTSDYSKYLDARAAK([AEEA-AEEA-γGlu-C20‑OH])D[αMeF]VQWL[Met(O2)]DT-NH2 [TP590]	Criterion met
H[Aib]QGTFTSDYSKYLD[Aib]RAAK([AEEA-AEEA-γGlu-C20‑OH])DFVQWL[Met(O2)]DT-NH2 [TP564]	Criterion not met
H[Aib]QGTFTSDYSKYLD[Aib]RAAQDFVQWLL[Phe(4-CH2NH2)]([AEEA-AEEA-γGlu-C18 diacid])TK-{γGlu-NH2} [TP682]	Criterion met

**Query** Assess whether reported GCGR EC50 human for HXQGTFTSDXSKYLDXRAAQDFVQWLLAX (D-Ser (s) at 2; pAF(PEG2PEG2γEC16OH) at 10; Aib (U) at 16; KγE at 30-31 (γ-glutamic acid after Lys 30); C-terminal amide) [TP659] sits at 2 nM or higher.
**Result** Criterion not met
